Test system: mice
test.description: SmartCube in vivo neuropharmacological behavioral assay
test.context: SmartCube, i.p. 15 min before test, result at the MED
Where a name gives a salt, the structure may show the parent alone.
measured.metric: AD: antidepressant (percent probability)

{"compound": "CC1CC2c3ccccc3C(C1)N2C1CC1 (centres unmarked) [Compound 38, hydrochloride]", "value.reported": "++++ (50% ≤ X < 100%)"}
{"compound": "c1ccc2c(c1)C1CCCC2N1", "value.reported": "++ (5% ≤ X < 25%)"}
{"compound": "c1ccc2c(c1)C1CCCC2N1C1CC1 [Compound 15, hydrochloride]", "value.reported": "++++ (50% ≤ X < 100%)"}
{"compound": "CC(C)N1C2CCCC1c1cc(F)c(F)cc12", "value.reported": "++ (5% ≤ X < 25%)"}

----------
Test system: mice
test.description: SmartCube in vivo neuropharmacological behavioral assay
test.context: SmartCube, i.p. 15 min before test, result at the MED
Structures can show the parent of a compound that is named as a salt.
measured.metric: UN: uncharacterized CNS activity (percent probability)

{"compound": "c1ccc2c(c1)C1CCCC2N1C1CC1 [Compound 15, hydrochloride]", "experimental.target": "mice", "value.reported": "+ (LOQ ≤ X < 5%)"}
{"compound": "c1ccc2c(c1)C1CCCC2N1C1CCCC1 [Compound 4, hydrochloride]", "experimental.target": "mice", "value.reported": "+ (LOQ ≤ X < 5%)"}
{"compound": "CC(C1CC1)N1C2CCCC1c1ccccc12 (centres unmarked) [Compound 21, hydrochloride]", "experimental.target": "mice", "value.reported": "+ (LOQ ≤ X < 5%)"}

----------
Test system: mice
test.description: SmartCube in vivo neuropharmacological behavioral assay
test.context: SmartCube, i.p. 15 min before test, result at the MED
Counter-ions that a name gives are not always drawn.
measured.metric: AG: analgesic (percent probability)

These solved cases illustrate the format of a correct answer.
{"compound": "CC[C@@H](C)N1C2CCCC1c1ccccc12 [Compound 25, hydrochloride]", "experimental.target": "mice", "value.reported": "+ (LOQ ≤ X < 5%)"}
{"compound": "CC(C1CC1)N1C2CCCC1c1ccccc12 (stereo not shown) [Compound 21, hydrochloride]", "experimental.target": "mice", "value.reported": "++ (5% ≤ X < 25%)"}
{"compound": "c1ccc(CCN2C3CCCC2c2ccccc23)cc1 [Compound 5]", "experimental.target": "mice", "value.reported": "+ (LOQ ≤ X < 5%)"}
{"compound": "CCC(C)N1C2CC(C)CC1c1ccccc12 (stereo not shown) [Compound 37, hydrochloride]", "experimental.target": "mice", "value.reported": "++ (5% ≤ X < 25%)"}
{"compound": "Fc1cc2c(cc1F)C1CCCC2N1 [Compound 40, hydrochloride]", "experimental.target": "mice", "value.reported": "++ (5% ≤ X < 25%)"}

Request: Indicate its recorded AG: analgesic (percent probability); the compound in question is c1ccc2c(c1)C1CCCC2N1C1CCOC1 (stereo not shown) [Compound 9, hydrochloride]
Response: ++ (5% ≤ X < 25%)

Request: Indicate its recorded AG: analgesic (percent probability); the compound in question is COCC(C)N1C2CCCC1c1ccccc12 (stereo not shown) [Compound 18]
Response: + (LOQ ≤ X < 5%)

Request: Indicate its recorded AG: analgesic (percent probability); the compound in question is CO[C@@H]1CC[C@H]2c3ccccc3[C@@H]1N2C(C)C (stereo in doubt) [Compound 34, hydrochloride]
Response: + (LOQ ≤ X < 5%)

Request: Indicate its recorded AG: analgesic (percent probability); the compound in question is c1ccc2c(c1)C1CCCC2N1C1CCCCC1 [Compound 13, hydrochloride]
Response: + (LOQ ≤ X < 5%)

Request: Indicate its recorded AG: analgesic (percent probability); the compound in question is c1ccc2c(c1)C1CCCC2N1C1CCCC1 [Compound 4, hydrochloride]
Response: ++ (5% ≤ X < 25%)

Request: Indicate its recorded AG: analgesic (percent probability); the compound in question is CC([C@H](C)F)N1C2CCCC1c1ccccc12 (stereo in doubt) [Compound 24, hydrochloride]
Response: + (LOQ ≤ X < 5%)

Request: Indicate its recorded AG: analgesic (percent probability); the compound in question is CC1CC2NC(C1)c1ccccc12 (stereo not shown) [Compound 29, hydrochloride]
Response: ++ (5% ≤ X < 25%)

Request: Indicate its recorded AG: analgesic (percent probability); the compound in question is CC(C)N1[C@@H]2C[C@@H](C)C[C@H]1c1ccccc12 [Compound 31, hydrochloride]
Response: + (LOQ ≤ X < 5%)

Request: Indicate its recorded AG: analgesic (percent probability); the compound in question is CC1CC2c3ccccc3C(C1)N2C1CCC1 (stereo not shown) [Compound 36, hydrochloride]
Response: + (LOQ ≤ X < 5%)

Request: Indicate its recorded AG: analgesic (percent probability); the compound in question is CC(CF)N1C2CCCC1c1ccccc12 (stereo not shown) [Compound 19, hydrochloride]
Response: + (LOQ ≤ X < 5%)

Request: Indicate its recorded AG: analgesic (percent probability); the compound in question is CC[C@H](C)N1C2CCCC1c1ccccc12 [Compound 26, hydrochloride]
Response: + (LOQ ≤ X < 5%)

Request: Indicate its recorded AG: analgesic (percent probability); the compound in question is CCCC(C)N1C2CCCC1c1ccccc12 (stereo not shown) [Compound 16, hydrochloride]
Response: ++ (5% ≤ X < 25%)

Request: Indicate its recorded AG: analgesic (percent probability); the compound in question is CC([C@@H](C)F)N1C2CCCC1c1ccccc12 (stereo in doubt) [Compound 23, hydrochloride]
Response: + (LOQ ≤ X < 5%)

Request: Indicate its recorded AG: analgesic (percent probability); the compound in question is CC(C)N1C2CCC(=O)C1c1ccccc12 (stereo not shown) [Compound 39, hydrochloride]
Response: + (LOQ ≤ X < 5%)

Request: Indicate its recorded AG: analgesic (percent probability); the compound in question is CC(C)C(C)N1C2CCCC1c1ccccc12 (stereo not shown) [Compound 22, hydrochloride]
Response: + (LOQ ≤ X < 5%)

Request: Indicate its recorded AG: analgesic (percent probability); the compound in question is CO[C@H]1CC[C@H]2c3ccccc3[C@@H]1N2C(C)C (stereo in doubt) [Compound 28, hydrochloride]
Response: ++ (5% ≤ X < 25%)

Request: Indicate its recorded AG: analgesic (percent probability); the compound in question is C[C@H]1CC[C@@H]2N[C@H]1c1ccccc12 (stereo in doubt) [Compound 32, hydrochloride]
Response: + (LOQ ≤ X < 5%)

Request: Indicate its recorded AG: analgesic (percent probability); the compound in question is c1ccc2c(c1)CC(N1C3CCCC1c1ccccc13)C2 [Compound 11, hydrochloride]
Response: ++ (5% ≤ X < 25%)

Request: Indicate its recorded AG: analgesic (percent probability); the compound in question is CC(C)N1C2CCCC1c1ccccc12 [Compound 2]
Response: ++ (5% ≤ X < 25%)
